System: SNB-19 CNS
Test: NCI-60 one-dose screen, 48 h (100 = growth as untreated, 0 = no growth, -100 = all killed)
Conditions: 10 µM unless noted
About 83,000 compounds went through this panel and 20% of them were active in at least one assay; those are over-represented in the sample as a whole.
Documented growth across a set of compounds
Provide only the numeric value, understood in %.

# count of solved cases: 5
CCCCCN(CCCCC)CC(O)c1ccc(C)c(Cl)c1 (centres undefined) ... 98
O=CN1N=C(c2ccc3c(c2)OCO3)CC1c1sc(N(CCCl)CCCl)nc1Cl (centres undefined) ... 91
NC(=O)OCC(CO)(c1ccccc1)c1ccccc1 ... 108
COc1ccc(CN2CCN(Cc3ccccc3)CC2)c(O)c1 ... 104
S=P(Nc1ccccc1)(Nc1ccccc1)c1ccccc1 ... 85.3

Here's the next entry for you.
Entry Cc1nnc([S-])s1.[Au+].c1ccc([PH+](c2ccccc2)c2ccccc2)cc1 : reported growth = ?
19.2

* * *

Documented growth across a set of compounds
Tested on: HL-60(TB) leukemia
Assay: NCI-60 one-dose screen, 48 h (100 = growth as untreated, 0 = no growth, -100 = all killed)
Conditions: 10 µM unless noted
Description: Growth inhibition of the HL-60(TB) human tumor cell line is measured as a screen for anti-cancer activity. Cells are grown in 96 well plates and exposed to the test compound for 48 hours. Compounds are tested at a single concentration, which is 10^-5 M for most compounds. The reported endpoint is percent growth (GI% or GIPRCNT), where numbers from 0 - 100% represent growth inhibition, and numbers from -100% - 0 represent cell death. For example, a value of 40 represents 60% growth inhibition. […]
The panel holds about 83,000 compounds, 20% with a hit somewhere; the sample as a whole holds those more often. Activity calls are given as the source filed them. Rule for the calls: active = growth percent below 10; inactive = the rest.

# count of solved cases: 6
CCCCCCCCCCCCC1C/C=C\CCCC(=O)O1 (stereo not given) ... 88.4% (inactive)
Cc1ccc(C(C)C)c(OCC(=O)O)c1 ... 117% (inactive)
COc1cc(C(C)(C)C)cc(OC)c1C(O)(c1c(OC)cc(C(C)(C)C)cc1OC)c1c(OC)cc(C(C)(C)C)cc1OC ... -63.7% (active)
COc1cc(/C(C#N)=C/c2nc3c(N4CCOCC4)nc(Cl)nc3n2C)cc(OC)c1OC ... -29% (active)
O=C1NC(=O)C(c2cnc3ccccn23)=C1c1cn2c3c(cc(F)cc13)CN(C(=O)N1CCCCC1)CC2 ... 48.1% (inactive)
CC1(C)CC(=O)C2=C(C1)Nc1cc3c(cc1C2c1ccc(F)cc1)OCO3 (stereo not given) ... 90.2% (inactive)

Entry C#Cc1ccc(-n2c(/C=C/c3cc(OC)cc(OC)c3)nc3ncccc3c2=O)cc1 : reported growth = ?
68.1% (inactive)

Another: Cc1ccc(NC(=O)Cn2c(Br)nc3c2c(=O)n(C)c(=O)n3C)cc1
102% (inactive)

Another: NC(=O)NC1(C(=O)O)CCCC1
97.1% (inactive)

Another: CCN(CC)CC(=O)Nc1c(C)ccc(N)c1C
74.2% (inactive)

Another: CCc1ccc(-c2nc(SCC(=O)NC3CCCCC3)n[nH]2)cc1
56.3% (inactive)

* * *

Documented growth across a set of compounds
Tested on: UACC-62 melanoma
Test: NCI-60 one-dose screen, 48 h (100 = growth as untreated, 0 = no growth, -100 = all killed)
Conditions: 10 µM unless noted
Compounds without any hit were thinned out: in the full panel of roughly 83,000, 20% have a hit. Active and inactive are the calls of the source. The calls were made as follows: active = growth percent below 10; inactive = the rest.

CNc1ccc(C(=O)CC(O)CCC(C)C2OC(=O)CC(O)CC(=O)CC(O)CC(O)CC(O)CC(O)CC3(O)CC(O)C(C(=O)OC)C(CC(O[C@@H]4O[C@H](C)[C@@H](O)[C@H](N)[C@@H]4O)/C=C/C=C/C=C/C=C/C=C/C=C/C=C/C2C)O3)cc1 (some centres not stated) ... 3.05% (active)
CC(C)CCC[C@@H](C)[C@H]1CC[C@H]2[C@@H]3CC=C4C[C@@H](OC(=O)Cc5ccc(N(CCCl)CCCl)cc5)CC[C@]4(C)[C@H]3CC[C@]12C ... 94.4% (inactive)
OC1(c2ccc(Cl)cc2Cl)c2ccccc2C2=NCCN21 (configuration not stated) ... 94% (inactive)
Cc1cccc(N=C2c3cc([N+](=O)[O-])ccc3-c3c2cc([N+](=O)[O-])cc3[N+](=O)[O-])c1 ... 77.5% (inactive)
CCOC(=O)/C(C#N)=C/c1ccc(N(CCCl)CCCl)cc1 ... 66.5% (inactive)

Entry N#CC1=C(N)Oc2cc3c(cc2C1c1cccs1)OCO3 (configuration not stated) : reported growth = ?
31.1% (inactive)

Another: Nc1c(Br)cc([N+](=O)[O-])cc1[N+](=O)[O-]
101% (inactive)

Another: CCC(C)/C=C(C)/C=C/C(=O)c1c(O)c(-c2ccc(O)cc2)c[nH]c1=O (configuration not stated)
48.8% (inactive)
